- study.system: TBK1 (Homo sapiens (Human))
- Sequence (Q9UHD2 whole entry): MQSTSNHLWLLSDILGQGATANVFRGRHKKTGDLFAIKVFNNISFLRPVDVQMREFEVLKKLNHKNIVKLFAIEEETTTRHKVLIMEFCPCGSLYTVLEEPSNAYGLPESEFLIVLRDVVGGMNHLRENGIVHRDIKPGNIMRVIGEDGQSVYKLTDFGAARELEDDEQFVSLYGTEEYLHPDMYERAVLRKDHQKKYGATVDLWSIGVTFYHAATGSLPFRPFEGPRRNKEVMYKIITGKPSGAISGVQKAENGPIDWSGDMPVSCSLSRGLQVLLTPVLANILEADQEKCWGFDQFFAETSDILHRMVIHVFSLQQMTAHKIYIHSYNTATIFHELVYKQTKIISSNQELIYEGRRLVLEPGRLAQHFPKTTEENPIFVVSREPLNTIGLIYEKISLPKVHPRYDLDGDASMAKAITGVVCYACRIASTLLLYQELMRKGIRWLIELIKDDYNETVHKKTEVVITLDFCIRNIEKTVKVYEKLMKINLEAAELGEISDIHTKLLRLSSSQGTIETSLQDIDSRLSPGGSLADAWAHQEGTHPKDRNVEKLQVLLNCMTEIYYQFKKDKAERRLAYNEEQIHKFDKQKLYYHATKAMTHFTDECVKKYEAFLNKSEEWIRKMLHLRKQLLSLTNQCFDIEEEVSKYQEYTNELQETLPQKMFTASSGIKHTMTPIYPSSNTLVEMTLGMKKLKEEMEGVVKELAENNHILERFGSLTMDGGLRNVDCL
- assay.protocol: TR-FRET kinase assay, TBK1
- condition.summary: read-out: TBK1-IC50; full length recombinant TBK1 2.5 nM, 2x Km ATP, 1 μM peptide, 240 min at 25° C.; geometric mean of minimum four determinations
reported.metric: IC50 (nM)

Examples with answers:
N#Cc1cc(-c2ccnc3[nH]c(-c4ccc(-n5cccn5)cc4)cc23)ccc1OC1CCOCC1 [Example 177]    33.5
N#Cc1cc(-c2ncnc3[nH]c(-c4ccc(N5CCOCC5)cc4)nc23)ccc1OC1CCN(C(=O)C(F)F)CC1 [Example 248]    3.63

[1] N#Cc1cc(-c2ncnc3[nH]c(-c4ccc(N5CCNCC5)cc4)cc23)ccc1OC1CCOCC1 [Example 200]
[2] N#Cc1cc(-c2ncnc3[nH]c(-c4cccc(N5CCOCC5)c4)cc23)ccc1OC1CCOCC1 [Example 103]
[3] N#Cc1cc(-c2ccnc3[nH]c(-c4ccc(N5CCOCC5)cc4)cc23)ccc1N [Example 28]
[4] Cc1ccc(-c2ccnc3[nH]c(-c4ccc(N5CCOCC5)cc4)cc23)cc1C#N [Example 69]
// sort entries: IC50, high to low Sort the labels as requested; that list is your answer.
4, 3, 2, 1
(4: 79.7 nM, 3: 11.7 nM, 2: 2.63 nM, 1: 0.644 nM)
